src = ChEMBL document CHEMBL6092176

Experimental details: AUC(0 to t) in C57BL/6 mouse at 10 mg/kg, ip measured upto 24 hrs
Type: ADME, organism-based
Stated conditions: in vivo
Value type: AUCt (ng·h/mL)
Dear colleague, please return just the value in ng·h/mL, with no unit written.

Enquiry: Param item = O=C(c1cnn2c(C(F)F)cc(-c3ccc(Cl)cc3)nc12)N1C[C@H]2CCCC[C@H]2C1 ; retrieve measured AUCt.
Return: 1560

====

Property: pIC50; scope: individual compounds
Tested target: Toll-like receptor 4 (Homo sapiens, UniProt O00206)
Sequence (O00206 whole entry): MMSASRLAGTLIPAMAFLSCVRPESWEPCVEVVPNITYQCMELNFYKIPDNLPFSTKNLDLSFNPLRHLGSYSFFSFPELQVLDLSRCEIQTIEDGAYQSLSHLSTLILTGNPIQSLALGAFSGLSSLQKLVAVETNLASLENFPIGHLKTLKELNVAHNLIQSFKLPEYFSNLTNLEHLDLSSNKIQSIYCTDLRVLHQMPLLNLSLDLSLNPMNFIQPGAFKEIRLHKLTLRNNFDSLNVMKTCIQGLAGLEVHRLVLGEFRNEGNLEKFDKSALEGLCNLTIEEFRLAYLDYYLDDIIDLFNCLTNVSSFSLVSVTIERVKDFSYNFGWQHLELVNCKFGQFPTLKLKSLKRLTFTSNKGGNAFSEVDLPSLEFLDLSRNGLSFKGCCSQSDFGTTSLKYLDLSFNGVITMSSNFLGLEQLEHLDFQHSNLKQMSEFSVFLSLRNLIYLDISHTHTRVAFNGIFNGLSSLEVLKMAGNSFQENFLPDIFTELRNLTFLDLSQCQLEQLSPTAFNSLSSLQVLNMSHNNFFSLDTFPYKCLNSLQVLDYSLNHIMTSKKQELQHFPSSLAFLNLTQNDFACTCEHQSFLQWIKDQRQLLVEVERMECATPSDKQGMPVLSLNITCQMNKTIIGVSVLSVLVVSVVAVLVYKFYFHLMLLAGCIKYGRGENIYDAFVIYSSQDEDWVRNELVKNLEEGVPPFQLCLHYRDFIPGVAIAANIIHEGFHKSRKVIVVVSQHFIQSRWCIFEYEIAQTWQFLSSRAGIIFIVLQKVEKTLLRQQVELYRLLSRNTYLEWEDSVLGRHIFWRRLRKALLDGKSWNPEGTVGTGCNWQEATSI
Experimental details: Inhibition of human TLR4 in LPS-stimulated HEK-Blue hTLR4 cells assessed as reduction in SEAP activity incubated for 24 hrs by microplate reader assay
Format: cell-based
pIC50: −log10 of the molar value.

>>> reported_result("CC(C)(C)OC(=O)NC1CCN(C(=O)c2cnn3c(C(F)F)cc(-c4ccc(Cl)cc4)nc23)CC1")
4.62
>>> reported_result("O=C(c1cnn2c(C(F)F)cc(-c3ccc(Cl)cc3)nc12)N1CCSCC1")
"< 4.30"

Moving on to another compound below.
Enquiry: I'm curious: which pIC50 was measured for CC(=O)N1CCN(C(=O)c2cnn3c(C(F)F)cc(-c4ccc(Cl)cc4)nc23)CC1 tested on Toll-like receptor 4 (Homo sapiens, UniProt O00206)?
Return: < 4.30
